molecules and their reported composite z-score
target: Dihydroorotate dehydrogenase (quinone), mitochondrial (Plasmodium falciparum (isolate 3D7)) (UniProt Q08210); assay: PfDHODH enzyme inhibitors, primary screen, biochemical, C-terminal His tag, absorbance 600 nm (AID 1175); conditions: DCIP absorbance 600 nm, higher = more signal, called active from +8 up or from −8 down;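 further: recombinant parasite enzyme with a five histidine tag at its C terminus; test concentration not given here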
Sequence (Q08210 whole entry, looked up): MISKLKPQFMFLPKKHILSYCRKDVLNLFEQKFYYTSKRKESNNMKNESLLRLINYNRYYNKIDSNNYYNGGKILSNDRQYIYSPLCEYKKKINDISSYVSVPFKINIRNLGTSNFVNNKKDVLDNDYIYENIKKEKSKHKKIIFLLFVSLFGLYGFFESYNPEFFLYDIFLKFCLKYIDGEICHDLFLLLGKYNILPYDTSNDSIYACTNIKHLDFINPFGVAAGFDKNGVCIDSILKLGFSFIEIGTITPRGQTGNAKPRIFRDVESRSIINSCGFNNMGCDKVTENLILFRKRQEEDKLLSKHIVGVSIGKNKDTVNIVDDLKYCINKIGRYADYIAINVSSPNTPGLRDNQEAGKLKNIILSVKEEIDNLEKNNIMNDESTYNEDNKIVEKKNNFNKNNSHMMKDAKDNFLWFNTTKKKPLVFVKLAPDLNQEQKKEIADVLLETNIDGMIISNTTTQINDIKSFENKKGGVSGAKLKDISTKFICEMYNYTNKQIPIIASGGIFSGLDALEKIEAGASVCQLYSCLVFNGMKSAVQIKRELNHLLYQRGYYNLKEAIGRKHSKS
The answer should be written as a number, with no unit following it.

Below, each entry is followed by its recorded composite z-score result.
[
  {
    "molecule": "NC(=O)N1C(=O)C2C(C1=O)C1C=C(CCCO)C2C(C2CC2)N1Cc1cccc(OC(F)(F)F)c1 (configuration not stated)",
    "numeric-readout": -1.26
  },
  {
    "molecule": "COc1ccc(C#Cc2ccc3c(c2)[C@]2(C(=O)N3)[C@H](C(=O)Nc3nc4ccccc4s3)[C@H]3C(=O)O[C@H](c4ccccc4)[C@H](c4ccccc4)N3[C@@H]2c2ccccc2OCCO)cc1",
    "numeric-readout": -5.43
  },
  {
    "molecule": "COC(=O)[C@@]1(Cc2ccccc2)[C@H]2c3cc(C(=O)N4CCCC4)n(CCSCCO)c3C[C@H]2CN1C(=O)c1ccccc1",
    "numeric-readout": -0.337
  },
  {
    "molecule": "CN1C(=O)C2C(C1=O)C1C=C(CCCO)C2C(C2CC2)N1Cc1cc2c(cc1Br)OCO2 (configuration not stated)",
    "numeric-readout": -0.341
  },
  {
    "molecule": "CCOC(=O)C1=C[C@@H](C(C)(C)C)N(S(=O)(=O)c2ccc(C)cc2)[C@H]1c1ccccc1",
    "numeric-readout": -0.294
  }
]

[ask] What measured composite z-score goes with CN1C(=O)C2C=CC(C(O)c3ccc(I)cc3)N(Nc3ccccc3)C2C1=O (configuration not stated) ?
[reply] -0.359

[ask] What measured composite z-score goes with C=CCNC(=O)[C@@H]1[C@H]2C(=O)O[C@H](c3ccccc3)[C@H](c3ccccc3)N2[C@H](c2ccc(O)cc2)[C@@]12C(=O)Nc1ccc(C#CCC(C(=O)OC)C(=O)OC)cc12 ?
[reply] -6.73

[ask] What measured composite z-score goes with CC(C)(C)OC(=O)CC[C@]12N=C(c3ccc(OCCCO)cc3)O[C@H]1c1ccccc1N(Cc1ccccc1)C2=O ?
[reply] -0.316

[ask] What measured composite z-score goes with COCCOC(=O)N1C(=O)[C@@]2(c3cc(C#CC4(O)CCCCCC4)ccc31)[C@H](C(=O)N1CCN(c3ncccn3)CC1)[C@H]1C(=O)O[C@H](c3ccccc3)[C@H](c3ccccc3)N1[C@@H]2c1ccccc1OCCO ?
[reply] 0.97

[ask] What measured composite z-score goes with O=C1C2C=CC(C(O)c3ccco3)N(Nc3ccccc3)C2C(=O)N1c1ccccc1 (configuration not stated) ?
[reply] 1.05

[ask] What measured composite z-score goes with O=C1C2C=CC(C(O)c3cc(C(F)(F)F)cc(C(F)(F)F)c3)N(Nc3ccccc3F)C2C(=O)N1c1ccccc1 (configuration not stated) ?
[reply] -0.232

[ask] What measured composite z-score goes with C=C(/C(=C/C[C@@H](OC(=O)c1ccncc1)c1cccc(OCCO)c1)c1cnc2ccccc2c1)C(C)C ?
[reply] -5.68

###

target: Pro-neuregulin-1, membrane-bound isoform (Homo sapiens); assay: NRG1 binders on small-molecule microarrays, primary screen, psychiatric disease protein project, biochemical, small-molecule microarray, fluorescence 635/667 (AID 1075); conditions: NRG1 binding, 635 nm fluorescence, higher = more signal;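 further: score combines 667 nm spot fluorescence with signal to noise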
molecules and their reported composite z-score
The answer should be written as a number, with no unit following it.

Below, each entry is followed by its recorded composite z-score result.
[
  {
    "molecule": "CCCCCCCCCCC(O)C1C=CC2C(=O)N(c3ccccc3)C(=O)C2N1Nc1ccccc1F (stereo not given)",
    "system-under-test": "Pro-neuregulin-1, membrane-bound isoform (Homo sapiens)",
    "composite z-score": 1.22
  },
  {
    "molecule": "Cc1ccc(F)cc1S(=O)(=O)N[C@@H]1CCN(Cc2cccc3[nH]ccc23)C1",
    "system-under-test": "Pro-neuregulin-1, membrane-bound isoform (Homo sapiens)",
    "composite z-score": 1.38
  },
  {
    "molecule": "[N-]=[N+]=NCc1ccccc1C[C@]1(C(=O)N2CCOCC2)COC(c2ccc(OCCCO)cc2)=N1",
    "system-under-test": "Pro-neuregulin-1, membrane-bound isoform (Homo sapiens)",
    "composite z-score": 1.02
  }
]

[ask] Param readout= composite z-score; system= Pro-neuregulin-1, membrane-bound isoform (Homo sapiens); entry= CCOC(=O)C1=C[C@@H](c2ccccc2)N(S(=O)(=O)c2ccc(C)cc2)[C@H]1c1ccccc1 ; returns value.
[reply] 0.442

[ask] Param readout= composite z-score; system= Pro-neuregulin-1, membrane-bound isoform (Homo sapiens); entry= COC(=O)[C@@]1(Cc2ccc(OC)cc2)[C@H]2c3cc(C(=O)N4CCCC4)n(Cc4cc(C)n(C)n4)c3C[C@H]2CN1C(=O)c1ccccc1 ; returns value.
[reply] 2.16

###

test: HepG2 liver cancer cell viability effects, profiling panel, resazurin fluorescence, 24 h, PK04 Diversity Set (AID 1172); conditions: higher = more signal; further: test concentration not given here
quantity: z-score
The answer should be written as a number, with no unit following it.

Below, each entry is followed by its recorded z-score result.
[
  {
    "compound": "O=C1C2C=CC(C(O)c3cccc(O)c3)N(Nc3ccccc3)C2C(=O)N1c1ccccc1 (stereo not drawn)",
    "z-score": -0.491
  },
  {
    "compound": "C#C[C@@H](CC)O[Si](C#CCCCC#N)(C(C)C)C(C)C",
    "z-score": -0.276
  }
]

Switching to the query record.
[ask] What measured z-score goes with [N-]=[N+]=Nc1ccccc1C[C@@]1(C(=O)O)N=C(c2ccc(OCCCO)cc2)O[C@@H]1c1ccccc1N=[N+]=[N-] ?
[reply] 0.628

###

compounds and their reported z-score
experiment: HepG2 liver cancer cell viability effects, profiling panel, resazurin fluorescence, 24 h, PK04 Diversity Set (AID 1172); details: higher = more signal; further: test concentration not given here
The answer should be written as a number, with no unit following it.

Below, each entry is followed by its recorded z-score result.
[
  {
    "compound": "Cc1ccccc1C(O)C1C=CC2C(=O)NC(=O)C2N1Nc1ccc(Cl)cc1Cl (stereo unspecified)",
    "z-score": -2.17
  },
  {
    "compound": "COCCOC(=O)N1C(=O)[C@@]2(c3cc(C#CCCO)ccc31)[C@H](C(=O)N1CCCCCCC1)[C@H]1C(=O)O[C@H](c3ccccc3)[C@H](c3ccccc3)N1[C@@H]2c1ccccc1OCCO",
    "z-score": -0.0873
  },
  {
    "compound": "CCOC(=O)C[C@H]1[C@H](OC(=O)c2ccc(C(=O)c3ccccc3)cc2)[C@@H](NC(=O)CC(C)C)c2cc(OCCCO)ccc2N1C(=O)Cc1ccc(OC)cc1",
    "z-score": -0.204
  }
]

[ask] What measured z-score goes with CN1C=C(C(=O)OCCS(C)(=O)=O)C(C(=O)OCCS(C)(=O)=O)=CC(c2ccc(CO)cc2)=CC1c1cccs1 (stereo unspecified) ?
[reply] 0.0449

[ask] What measured z-score goes with C[C@@H]1ON(c2ccc(I)cc2)[C@H](c2ccc(OC(=O)OC(C)(C)C)cc2)[C@H]1C(=O)N1C(=O)OC[C@H]1Cc1ccccc1 ?
[reply] 1.14

[ask] What measured z-score goes with COc1ccc([Si](C)(C)[C@@H]2[C@@H](CCn3cc([C@H](O)c4ccccc4)nn3)O[C@]3(C(=O)N(Cc4cccc(N5C(=O)c6cccc7cccc5c67)c4)c4ccccc43)[C@H]2C)cc1 ?
[reply] -0.167

[ask] What measured z-score goes with COCCOC(=O)N1C(=O)[C@@]2(c3cc(C#CC4=CCCCC4)ccc31)[C@H](c1ccc(O)cc1)N1[C@H](c3ccccc3)[C@H](c3ccccc3)OC(=O)[C@H]1[C@@H]2C(=O)NC[C@H](O)c1ccccc1 ?
[reply] -1.35

[ask] What measured z-score goes with C=CCN1C(=O)[C@]2(O[C@H](CCO)[C@@H]([Si](C)(C)c3ccc(OC)cc3)[C@@H]2C)c2cc(N3C(=O)COc4ccccc43)ccc21 ?
[reply] -5.79

[ask] What measured z-score goes with O=C1C2C=CC(C(O)c3ccc(I)cc3)N(Nc3ccccc3)C2C(=O)N1c1ccccc1 (stereo unspecified) ?
[reply] -1.04

[ask] What measured z-score goes with O=C(NCCN1CCOCC1)[C@@H]1c2ccccc2C(=O)N(Cc2ccccc2)[C@H]1c1ccc(CO)cc1 ?
[reply] 1.15

[ask] What measured z-score goes with O=C1C[C@@](C(=O)NCC(F)(F)F)(c2ccc([N+](=O)[O-])cc2)[C@@H](c2ccc(CO)cc2)N1CC12CC3CC(CC(C3)C1)C2 ?
[reply] -1.85

###

test: small-molecule microarray binders of probe aWnt5a, primary screen, biochemical, biotinylated probe, 635/667 nm fluorescence (AID 1113); conditions: higher = more signal;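 further: score merges 667 nm fluorescence intensity with signal-to-noise per printed feature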
Lab note: anything with composite z-score at or over 0.01 counts as y; the rest go in n.

[
  {
    "molecule": "COC(=O)[C@@]1(Cc2ccc(F)cc2)[C@H]2c3cc(C(=O)N4CCCC4)n(CC4CC4)c3C[C@H]2CN1C(=O)c1ccccc1",
    "label-class": "y"
  }
]

Okay, now this molecule:
[ask] Does composite z-score meet or surpass 0.01 for CCCCC(=C=CC[C@H](O)c1ccc(OCCO)cc1)C[C@H](O)COCc1ccccc1 ?
[reply] n

Values were extracted from PubChem BioAssay.
